Values compiled from PubChem BioAssay (NCATS).

system: CASKI; test: Primary qHTS to identify gynecologic anti-cancer compounds using libraries of approved drugs and bioactive compounds (AID 1345084); details: Gynecologic cancer cell panel viability, ATPlite luminescence, 48 h; series mostly up to 57.5 µM; further: nearly all actives have a fitted effect of over 55% in size; on activity change, negative = cytotoxicity: on the % scale 0 is the no-effect control and ±100 the full control effect
Records with an inconclusive call do not appear. Active and inactive are the calls of the source. The call rests on the fitted dose curve; in most records, active means well fitted cell-killing curve with a large enough effect; inconclusive means small, poorly fitted or top-dose-only effect, or effect the other way; inactive means flat fitted curve, though single readings scatter.
Readout: activity change, negative = cytotoxicity

Use these answered entries as a reference point.
compound="COc1ccc(C2Oc3c(OC)cc(CCCO)cc3C2COC2OC(CO)C(O)C(O)C2O)cc1OC (stereo not drawn)" readout="activity change, negative = cytotoxicity" test_value=inactive
compound="C[C@@H]1O[C@@H](O[C@H]2CC[C@@]3(C)C(CC[C@]4(C)C3CC=C3[C@@H]5CC(C)(C)CC[C@]5(C(=O)O[C@@H]5O[C@H](CO)[C@@H](O)[C@H](O)[C@H]5O)CC[C@]34C)[C@]2(C)CO)[C@H](O)[C@H](O[C@@H]2O[C@H](CO)[C@@H](O)[C@H](O)[C@H]2O)[C@H]1O (stereo partly drawn)" readout="activity change, negative = cytotoxicity" test_value="-6.26% [at 11.6 µM] (inactive)"
compound="CCOC(=O)N1CCC(CN(Cc2ccc(Cl)cc2)Cc2ccc([N+](=O)[O-])s2)C1 (stereo not drawn)" readout="activity change, negative = cytotoxicity" test_value=inactive
compound=Clc1cccc(COc2cncc(N3CCNCC3)n2)c1 readout="activity change, negative = cytotoxicity" test_value=inactive
compound=Clc1ccc(Cn2c(Cc3ccccc3)nc3ccccc32)cc1 readout="activity change, negative = cytotoxicity" test_value=inactive

QUERY: Param item = "CC(C)C[C@H](CO)Nc1nc(S[C@@H](C)c2ccccc2)nc2nc(N)sc12" ; retrieve measured activity change, negative = cytotoxicity.
RESULT: inactive

QUERY: Same read-out for "C=C1C(=O)O[C@@H]2/C=C(\CO)CC/C=C(/C=O)C[C@H](O)[C@@H]12" ?
RESULT: inactive

QUERY: Same read-out for "COc1ccc(NC(=O)c2ccc(-c3ccc(C(=N)N)cc3C)cc2)cc1N1CCN(C)CC1" ?
RESULT: inactive

###

system: C33A; assay: Primary qHTS to identify gynecologic anti-cancer compounds using libraries of approved drugs and bioactive compounds (AID 1345084); settings: Gynecologic cancer cell panel viability, ATPlite luminescence, 48 h; series mostly up to 57.5 µM; further: nearly all actives have a fitted effect of over 55% in size
Records with an inconclusive call do not appear. Activity calls are given as the source filed them. Calls come from the whole dose curve; as a rule, active = well fitted cell-killing curve with a large enough effect; inconclusive = small, poorly fitted or top-dose-only effect, or effect the other way; inactive = flat fitted curve, though single readings scatter.
Readout: outcome

smiles_repr=CC(C)CCCCC(=O)N[C@@H](CO)C(=O)N[C@@H](CC(C)C)C(=O)[C@@]1(CO)CO1 test_value=inactive
smiles_repr=Cc1noc(-c2ccc(-c3ccc(CC(=O)O)cc3)cc2)c1NC(=O)O[C@H](C)c1ccccc1Cl test_value=inactive
smiles_repr=CN(C)CCN(Cc1ccccc1)C(=O)c1cc(-c2ccc(F)cc2)n2nc(C(C)(C)C)cc2n1 test_value=inactive
smiles_repr=O=C(O)c1ccc(S(=O)(=O)N(Cc2ccc(OC(F)(F)F)cc2)c2ncc(C(F)(F)F)cc2Cl)cc1 test_value=inactive

###

test system: Zika virus NS2B-NS3 protease (unlinked complex); experiment: Primary screen GU Rhodamine qHTS for Zika virus inhibitors: Unlinked NS2B-NS3 protease assay (AID 1347159); details: Recombinant ZIKV NS2B-NS3 protease, Rhodamine110 substrate fluorescence; series mostly up to 107 µM; further: nearly all actives have a fitted effect of over 60% in size; further: potency means the concentration at half of the fitted maximal effect
Records with an inconclusive call do not appear. Active and inactive are the calls of the source. The call rests on the fitted dose curve; in most records, active means well fitted inhibition curve with a large enough effect; inconclusive means small, poorly fitted or top-dose-only effect; inactive means no such curve, though single readings can be large or run the other way.
Readout: Potency

compound="CCO[C@H]1CN(C2CCC(O)(c3ccc4c(c3)OCO4)CC2)C[C@@H]1NC(=O)CNC(=O)c1cccc(C(F)(F)F)c1 (some centres undefined)" tested_system="Zika virus NS2B-NS3 protease (unlinked complex)" readout=Potency test_value=inactive
compound=Cc1cc(F)c(C(=O)Nc2cccc(-c3nncn3C(C)C)n2)cc1-n1cnc(C2CC2)c1 tested_system="Zika virus NS2B-NS3 protease (unlinked complex)" readout=Potency test_value=inactive
compound=CN1CC[C@@H](c2c(O)cc(O)c3c(=O)cc(-c4ccc(C(F)(F)F)cc4Cl)oc23)[C@@H]1CO tested_system="Zika virus NS2B-NS3 protease (unlinked complex)" readout=Potency test_value=inactive
compound="Nc1nc(Nc2ccc3c(c2)CCC(N2CCCC2)CC3)nn1-c1cc2c(nn1)-c1ccccc1CCC2 (centres undefined)" tested_system="Zika virus NS2B-NS3 protease (unlinked complex)" readout=Potency test_value="50.1 µM (active)"

###

tested on: OV90; test: Primary qHTS to identify gynecologic anti-cancer compounds using libraries of approved drugs and bioactive compounds (AID 1345084); details: Gynecologic cancer cell panel viability, ATPlite luminescence, 48 h; series mostly up to 57.5 µM; further: nearly all actives have a fitted effect of over 55% in size
Inconclusive results are not listed. Calls of active or inactive are those of the source. Calls follow the shape of the dose curve; as a rule, active = well fitted cell-killing curve with a large enough effect; inconclusive = small, poorly fitted or top-dose-only effect, or effect the other way; inactive = flat fitted curve, though single readings scatter.
Could you please pick one outcome from this set? T = active, F = inactive

smiles_repr=CN1CCN(c2ccc(Nc3cc(-c4cccc(-n5ccc6cc(C7CC7)cc(F)c6c5=O)c4CO)cn(C)c3=O)nc2)CC1 assigned_category=F
smiles_repr=O=C(c1cc(Cc2n[nH]c(=O)c3ccccc23)ccc1F)N1CCCNCC1 assigned_category=F
smiles_repr=Fc1ccc(N2CCCCC2)c(NC(=S)c2ccncc2)c1 assigned_category=F

QUERY: What call does the record list for "COc1cc(OC)c(NC(=O)c2ccc(Cc3cc4c(cc3C)C(C)(C)CCC4(C)C)o2)c(OC)c1" ?
RESULT: F

QUERY: Same read-out for "COc1cc2c(Nc3cc(F)c(Cl)c(Cl)c3)ncnc2cc1OCC1CCCN(C)CCC1" ?
RESULT: T

###

target: Nicotinamide N-methyltransferase (Homo sapiens); experiment: Confirmatory Screen for Target Class Profiling of Small Molecule Inhibitors of Methyltransferases (AID 1745852); conditions: MTase-Glo luminescence, SAH detection, recombinant enzyme; measured here: NNMT max response; stronger effect = lower value
Threshold-based label: activity under -50% gives t, activity not under -50% gives f.

Observe how each entry below is paired with its result.
compound=CC#C[C@@H](CC(=O)O)c1ccc(OCc2cccc(-c3ccc(C(F)(F)F)cc3)c2)cc1 assigned_category=f
compound="CCn1c(-c2nonc2N)nc2c(C#CC(C)(C)O)ncc(OCC3CCCNC3)c21 (centres undefined)" assigned_category=f
compound=C[C@H](Oc1cc(-c2cnn(C3CCNCC3)c2)cnc1N)c1c(Cl)ccc(F)c1Cl assigned_category=t
compound=CC(C)c1cc2c(N3CCN(C4=NCC(C)(C)S4)CC3)ncnc2s1 assigned_category=t

QUERY: Here's an entry: "C=C1C(=O)O[C@@H]2C=C(COC(C)=O)CC/C=C(\CO)CC[C@@H]12" . Is its activity below -50%?
RESULT: f

QUERY: Same read-out for Cc1c(OCc2cccc(-c3ccc(C(=O)O)cc3)c2)cc2c(c1C)C(=O)C(C1CCCC1)C2 (centres undefined) ?
RESULT: f

QUERY: Same read-out for "N#C/C(=C1\Nc2ccccc2S1)c1ccnc(NCCc2cccnc2)n1" ?
RESULT: f

QUERY: Same read-out for "Cc1ccc(CNc2ncnc3ccc(-c4ccc(CO)o4)cc23)o1" ?
RESULT: f

###

Tested on: HeLa
Experiment: Primary qHTS to identify gynecologic anti-cancer compounds using libraries of approved drugs and bioactive compounds (AID 1345084); further: nearly all actives have a fitted effect of over 55% in size
Settings: Gynecologic cancer cell panel viability, ATPlite luminescence, 48 h; series mostly up to 57.5 µM
Excerpt: National Center for Advancing Translational Sciences [NCATS] Assay Overview: Chemotherapeutic drug responses vary from cancer to cancer and from patient to patient. […] ATPlite is a luminescence based assay reliant on the conversion of a luciferase substrate to light in the presence of ATP. As a cytotoxic compound will suppress growth and decrease the number of cells, the concentration of ATP will decrease, and less light signal will be detected in the well. […]
Inconclusive results are not listed. Calls of active or inactive are those of the source. Calls come from the whole dose curve; as a rule, active = well fitted cell-killing curve with a large enough effect; inconclusive = small, poorly fitted or top-dose-only effect, or effect the other way; inactive = flat fitted curve, though single readings scatter.
Readout: outcome

Use these answered entries as a reference point.
compound=CN(C)C(=O)C(=O)c1cn(C)c2cc(Cl)c(C(=O)N3CCC(Cc4ccc(F)cc4)CC3)cc12 test_value=inactive
compound="Nc1nc(Cl)nc2c1ncn2C1OC(CO)C(O)C1F (stereo unspecified)" test_value=inactive
compound=CCC(=C(c1ccc(OCCN2CCCC2)cc1)c1ccc(OCCN2CCCC2)cc1)c1ccccc1 test_value=inactive
compound=CC1(NC(=O)c2ccc(C#Cc3cccc(F)c3)cn2)COC1 test_value=inactive
compound="CN(C)CCOC(C)(c1ccccc1)c1ccc(Cl)cc1 (stereo unspecified)" test_value=inactive

Next, consider the following compound.
QUERY: Param item = "CC(C)n1nc(C#Cc2ccccc2)c2c(N)ncnc21" ; retrieve measured outcome.
RESULT: inactive

###

target: Calcium and integrin-binding protein 1 (Homo sapiens); assay: Primary qHTS for Identification of Calcium Integrin Binding Protein 1 (CIB1) Competitor (AID 1508620); conditions: CIB1-GST / FITC-alphaIIb peptide fluorescence polarization; series mostly up to 114 µM;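 further: GST tagged CIB1 binding a fluorescein labelled alphaIIb integrin peptide tracer; top concentration of the series differs between compounds; on the % scale 0 is the no-effect control and ±100 the full control effect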
Records with an inconclusive call do not appear. The source made the active and inactive calls. Calls come from the whole dose curve; as a rule, active = well fitted inhibition curve with a large enough effect; inconclusive = small, poorly fitted or top-dose-only effect; inactive = flat fitted curve, though single readings scatter.
Readout: activity change, negative = inhibition

Use these answered entries as a reference point.
compound=COCC(=O)NC/C=C/c1ccc2ncnc(Nc3ccc(Oc4ccc(C)nc4)c(C)c3)c2c1 readout="activity change, negative = inhibition" test_value=inactive
compound=COCCNCc1ccc(-c2cc3nccc(Oc4ccc(NC(=O)C5(C(=O)Nc6ccc(F)cc6)CC5)cc4F)c3s2)nc1 readout="activity change, negative = inhibition" test_value=inactive
compound=CCC(CC)(NC(=O)C(C)C)C(=O)N[C@@H](CCCN=C(N)N)C(=O)NC1(C(=O)NC(c2ccc(F)cc2)c2ccc(F)cc2)CCCC1 readout="activity change, negative = inhibition" test_value=inactive
compound="C=C1C(=O)OC2/C=C(\\COC(C)=O)CC/C=C(\\C=O)CC(OC(=O)C(C)CC)C12 (centres undefined)" readout="activity change, negative = inhibition" test_value=inactive
compound="CC(CCC1(O)OC2CC3C4CC=C5C[C@@H](O[C@@H]6O[C@H](CO)[C@@H](O[C@@H]7O[C@@H](C)[C@H](O)[C@@H](O)[C@H]7O)[C@H](O)[C@H]6O[C@@H]6O[C@@H](C)[C@H](O)[C@@H](O)[C@H]6O)CC[C@]5(C)C4CC[C@]3(C)[C@@]2(O)[C@@H]1C)CO[C@@H]1O[C@H](CO)[C@@H](O)[C@H](O)[C@H]1O (some centres undefined)" readout="activity change, negative = inhibition" test_value=inactive
compound=CCN(CCNC(=O)Nc1ccccc1Br)c1cccc(C)c1 readout="activity change, negative = inhibition" test_value=inactive

QUERY: Param item = "O=C(Nc1ccc(Cl)cc1)Nc1cccc(-c2cccc(N3CCCC3)n2)c1" ; retrieve measured activity change, negative = inhibition.
RESULT: inactive
